- Target: MCR-C (C-terminal domain of malonyl-CoA reductase) (Chloroflexus aurantiacus)
- Experimental protocol: NADPH absorbance at […] nm, product inhibition
- Format: biochemical
Listed next: entries and their corresponding Ki.

Compound smiles	Target	Ki / µM
NC(=O)c1ccc[n+]([C@@H]2O[C@H](COP(=O)(O)OP(=O)(O)OC[C@H]3O[C@@H](n4cnc5c(N)ncnc54)[C@H](OP(=O)(O)O)[C@@H]3O)[C@@H](O)[C@H]2O)c1	MCR-C (C-terminal domain of malonyl-CoA reductase) (Chloroflexus aurantiacus)	104
CC(C)(COP(=O)(O)OP(=O)(O)OC[C@H]1O[C@@H](n2cnc3c(N)ncnc32)[C@H](O)[C@@H]1OP(=O)(O)O)[C@@H](O)C(=O)NCCC(=O)NCCS	MCR-C (C-terminal domain of malonyl-CoA reductase) (Chloroflexus aurantiacus)	238
